Reference source: BigSolDB 2.1

conditions: in acetonitrile, 328.15 K
reported metric: solubility (mole fraction)
Write no unit; give the number alone.

Sample O=[N+]([O-])c1cn[nH]c1 — what was its solubility (mole fraction)?
0.135

----------
details: in water, 313.15 K
reported metric: solubility (mole fraction)
Write no unit; give the number alone.

Sample O=[N+]([O-])c1cn[nH]c1 — what was its solubility (mole fraction)?
0.00763

----------
details: in methanol, 328.15 K
reported metric: solubility (mole fraction)
Write no unit; give the number alone.

Sample O=[N+]([O-])c1cn[nH]c1 — what was its solubility (mole fraction)?
0.366

----------
conditions: in ethyl acetate, 323.15 K
reported metric: solubility (mole fraction)

Sample O=[N+]([O-])c1cn[nH]c1 — what was its solubility (mole fraction)?
0.0214

----------
settings: in isopentanol, 298.15 K
reported metric: solubility (mole fraction)
Write no unit; give the number alone.

Sample O=[N+]([O-])c1cn[nH]c1 — what was its solubility (mole fraction)?
0.0854

----------
conditions: in methyl acetate, 288.15 K
reported metric: solubility (mole fraction)
Write no unit; give the number alone.

Sample O=[N+]([O-])c1cn[nH]c1 — what was its solubility (mole fraction)?
0.00727

----------
details: in THF, 313.15 K
reported metric: solubility (mole fraction)
Write no unit; give the number alone.

Sample O=[N+]([O-])c1cn[nH]c1 — what was its solubility (mole fraction)?
0.011

----------
conditions: in n-propanol, 293.15 K
reported metric: solubility (mole fraction)
Write no unit; give the number alone.

Sample O=[N+]([O-])c1cn[nH]c1 — what was its solubility (mole fraction)?
0.101

----------
conditions: in acetonitrile, 318.15 K
reported metric: solubility (mole fraction)
Write no unit; give the number alone.

Sample O=[N+]([O-])c1cn[nH]c1 — what was its solubility (mole fraction)?
0.108

----------
details: in n-propanol, 298.15 K
reported metric: solubility (mole fraction)
Write no unit; give the number alone.

Sample O=[N+]([O-])c1cn[nH]c1 — what was its solubility (mole fraction)?
0.115

----------
conditions: in n-pentanol, 288.15 K
reported metric: solubility (mole fraction)
Write no unit; give the number alone.

Sample O=[N+]([O-])c1cn[nH]c1 — what was its solubility (mole fraction)?
0.0714

----------
details: in methyl acetate, 293.15 K
reported metric: solubility (mole fraction)
Write no unit; give the number alone.

Sample O=[N+]([O-])c1cn[nH]c1 — what was its solubility (mole fraction)?
0.00817

----------
conditions: in methanol, 298.15 K
reported metric: solubility (mole fraction)
Write no unit; give the number alone.

Sample O=[N+]([O-])c1cn[nH]c1 — what was its solubility (mole fraction)?
0.142

----------
conditions: in n-propanol, 303.15 K
reported metric: solubility (mole fraction)

Sample O=[N+]([O-])c1cn[nH]c1 — what was its solubility (mole fraction)?
0.133

----------
settings: in methyl acetate, 308.15 K
reported metric: solubility (mole fraction)
Write no unit; give the number alone.

Sample O=[N+]([O-])c1cn[nH]c1 — what was its solubility (mole fraction)?
0.0139

----------
conditions: in water, 293.15 K
reported metric: solubility (mole fraction)

Sample O=[N+]([O-])c1cn[nH]c1 — what was its solubility (mole fraction)?
0.00286

----------
conditions: in isopentanol, 308.15 K
reported metric: solubility (mole fraction)
Write no unit; give the number alone.

Sample O=[N+]([O-])c1cn[nH]c1 — what was its solubility (mole fraction)?
0.12

----------
details: in ethanol, 298.15 K
reported metric: solubility (mole fraction)
Write no unit; give the number alone.

Sample O=[N+]([O-])c1cn[nH]c1 — what was its solubility (mole fraction)?
0.128

----------
details: in acetonitrile, 323.15 K
reported metric: solubility (mole fraction)
Write no unit; give the number alone.

Sample O=[N+]([O-])c1cn[nH]c1 — what was its solubility (mole fraction)?
0.124

----------
conditions: in methanol, 293.15 K
reported metric: solubility (mole fraction)
Write no unit; give the number alone.

Sample O=[N+]([O-])c1cn[nH]c1 — what was its solubility (mole fraction)?
0.126

----------
conditions: in ethyl acetate, 313.15 K
reported metric: solubility (mole fraction)

Sample O=[N+]([O-])c1cn[nH]c1 — what was its solubility (mole fraction)?
0.0144

----------
conditions: in isobutanol, 323.15 K
reported metric: solubility (mole fraction)
Write no unit; give the number alone.

Sample O=[N+]([O-])c1cn[nH]c1 — what was its solubility (mole fraction)?
0.195

----------
conditions: in methanol, 323.15 K
reported metric: solubility (mole fraction)
Write no unit; give the number alone.

Sample O=[N+]([O-])c1cn[nH]c1 — what was its solubility (mole fraction)?
0.312

----------
details: in isopropanol, 293.15 K
reported metric: solubility (mole fraction)
Write no unit; give the number alone.

Sample O=[N+]([O-])c1cn[nH]c1 — what was its solubility (mole fraction)?
0.0568

----------
settings: in ethanol, 308.15 K
reported metric: solubility (mole fraction)

Sample O=[N+]([O-])c1cn[nH]c1 — what was its solubility (mole fraction)?
0.168

----------
settings: in n-pentanol, 318.15 K
reported metric: solubility (mole fraction)
Write no unit; give the number alone.

Sample O=[N+]([O-])c1cn[nH]c1 — what was its solubility (mole fraction)?
0.189

----------
conditions: in acetonitrile, 298.15 K
reported metric: solubility (mole fraction)
Write no unit; give the number alone.

Sample O=[N+]([O-])c1cn[nH]c1 — what was its solubility (mole fraction)?
0.0529

----------
settings: in methyl acetate, 328.15 K
reported metric: solubility (mole fraction)
Write no unit; give the number alone.

Sample O=[N+]([O-])c1cn[nH]c1 — what was its solubility (mole fraction)?
0.0272

----------
conditions: in acetone, 313.15 K
reported metric: solubility (mole fraction)

Sample O=[N+]([O-])c1cn[nH]c1 — what was its solubility (mole fraction)?
0.0495

----------
settings: in isopropanol, 313.15 K
reported metric: solubility (mole fraction)

Sample O=[N+]([O-])c1cn[nH]c1 — what was its solubility (mole fraction)?
0.121

----------
conditions: in isopentanol, 318.15 K
reported metric: solubility (mole fraction)
Write no unit; give the number alone.

Sample O=[N+]([O-])c1cn[nH]c1 — what was its solubility (mole fraction)?
0.173

----------
conditions: in n-butanol, 293.15 K
reported metric: solubility (mole fraction)

Sample O=[N+]([O-])c1cn[nH]c1 — what was its solubility (mole fraction)?
0.0902

----------
conditions: in isopentanol, 328.15 K
reported metric: solubility (mole fraction)
Write no unit; give the number alone.

Sample O=[N+]([O-])c1cn[nH]c1 — what was its solubility (mole fraction)?
0.262

----------
conditions: in THF, 308.15 K
reported metric: solubility (mole fraction)
Write no unit; give the number alone.

Sample O=[N+]([O-])c1cn[nH]c1 — what was its solubility (mole fraction)?
0.0089

----------
conditions: in n-pentanol, 308.15 K
reported metric: solubility (mole fraction)
Write no unit; give the number alone.

Sample O=[N+]([O-])c1cn[nH]c1 — what was its solubility (mole fraction)?
0.132

----------
settings: in water, 303.15 K
reported metric: solubility (mole fraction)
Write no unit; give the number alone.

Sample O=[N+]([O-])c1cn[nH]c1 — what was its solubility (mole fraction)?
0.00471

----------
conditions: in isopropanol, 288.15 K
reported metric: solubility (mole fraction)
Write no unit; give the number alone.

Sample O=[N+]([O-])c1cn[nH]c1 — what was its solubility (mole fraction)?
0.0481

----------
settings: in isopentanol, 303.15 K
reported metric: solubility (mole fraction)
Write no unit; give the number alone.

Sample O=[N+]([O-])c1cn[nH]c1 — what was its solubility (mole fraction)?
0.106

----------
conditions: in methanol, 318.15 K
reported metric: solubility (mole fraction)

Sample O=[N+]([O-])c1cn[nH]c1 — what was its solubility (mole fraction)?
0.258

----------
conditions: in isopropanol, 308.15 K
reported metric: solubility (mole fraction)
Write no unit; give the number alone.

Sample O=[N+]([O-])c1cn[nH]c1 — what was its solubility (mole fraction)?
0.0988

----------
conditions: in isopropanol, 328.15 K
reported metric: solubility (mole fraction)

Sample O=[N+]([O-])c1cn[nH]c1 — what was its solubility (mole fraction)?
0.238

----------
conditions: in acetone, 328.15 K
reported metric: solubility (mole fraction)
Write no unit; give the number alone.

Sample O=[N+]([O-])c1cn[nH]c1 — what was its solubility (mole fraction)?
0.0582

----------
conditions: in isopropanol, 323.15 K
reported metric: solubility (mole fraction)

Sample O=[N+]([O-])c1cn[nH]c1 — what was its solubility (mole fraction)?
0.186

----------
settings: in THF, 288.15 K
reported metric: solubility (mole fraction)
Write no unit; give the number alone.

Sample O=[N+]([O-])c1cn[nH]c1 — what was its solubility (mole fraction)?
0.00413

----------
conditions: in THF, 318.15 K
reported metric: solubility (mole fraction)
Write no unit; give the number alone.

Sample O=[N+]([O-])c1cn[nH]c1 — what was its solubility (mole fraction)?
0.0134

----------
conditions: in n-propanol, 323.15 K
reported metric: solubility (mole fraction)
Write no unit; give the number alone.

Sample O=[N+]([O-])c1cn[nH]c1 — what was its solubility (mole fraction)?
0.255
